// data source = patent US20220298115A1

Biological target: human ACSS2 (Homo sapiens, UniProt Q9NR19)
Construct: The cytosolic fraction of BT474 cells was used as a source of the ACSS2 enzyme; endogenous in cells
Sequence (Q9NR19 whole entry): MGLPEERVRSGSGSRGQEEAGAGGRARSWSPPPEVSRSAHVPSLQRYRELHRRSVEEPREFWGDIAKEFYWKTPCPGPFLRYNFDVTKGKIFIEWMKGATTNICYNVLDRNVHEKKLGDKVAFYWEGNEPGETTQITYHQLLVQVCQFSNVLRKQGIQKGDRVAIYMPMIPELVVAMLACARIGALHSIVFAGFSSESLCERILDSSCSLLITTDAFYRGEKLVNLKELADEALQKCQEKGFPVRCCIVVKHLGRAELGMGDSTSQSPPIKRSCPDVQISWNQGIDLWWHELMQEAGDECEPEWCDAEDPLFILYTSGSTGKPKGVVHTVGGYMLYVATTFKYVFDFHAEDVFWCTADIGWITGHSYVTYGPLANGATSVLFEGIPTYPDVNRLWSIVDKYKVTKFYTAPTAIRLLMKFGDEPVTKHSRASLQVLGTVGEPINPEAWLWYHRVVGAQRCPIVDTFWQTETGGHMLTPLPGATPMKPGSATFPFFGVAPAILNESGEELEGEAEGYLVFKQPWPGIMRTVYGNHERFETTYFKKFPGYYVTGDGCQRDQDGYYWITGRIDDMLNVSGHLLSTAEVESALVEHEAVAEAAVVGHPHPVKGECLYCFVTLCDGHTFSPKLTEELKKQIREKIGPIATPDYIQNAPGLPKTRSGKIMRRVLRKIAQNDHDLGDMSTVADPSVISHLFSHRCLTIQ
Experiment: ACSS2 enzyme assay (acetyl-CoA formation, LC-MS/MS)
Conditions: cytosolic fraction of BT474 cells as ACSS2 source; 100 μM acetate, CoA and ATP; 2 h at 25° C.; read-out: Enzyme Activity (IC50 range)
pIC50: −log10 of the molar value.
List of pIC50 values.

Answered cases to consult:
>  <compound>
C#CCNC(=O)Nc1ccc2nc(-c3ccccc3)c(-c3ccccc3)cc2c1

>  <property>
pIC50

>  <testValue>
≥ 6.00

$$$$
>  <compound>
CCC(O)CNC(=O)Nc1ccc2nc(-c3ccc(F)cc3)c(-c3ccc(F)cc3)cc2c1 (centres unmarked)

>  <property>
pIC50

>  <testValue>
> 7.00

$$$$
>  <compound>
CCC(O)CNC(=O)Nc1ccc2nc(C3=CCCCC3)c(-c3ccccc3F)cc2c1 (centres unmarked)

>  <property>
pIC50

>  <testValue>
≥ 6.00

$$$$

Query compound follows.
Q: Enter pIC50 (test system human ACSS2 (Homo sapiens, UniProt Q9NR19)) for CC[C@H](O)CNC(=O)Nc1ccc2nc(C)c(-c3ccccc3)cc2c1
A: ≥ 6.00
